Entries and their tR (min) Fluorescence assay values follow.
target: paLpxC (Pseudomonas aeruginosa (strain ATCC 15692 / DSM 22644 / CIP 104116 / JCM 14847 / LMG 12228 / 1C / PRS 101 / PAO1), UniProt P47205); assay: biochemical; assay type: binding; details: 37° C., tR = 1/koff
Sequence (P47205 1-299): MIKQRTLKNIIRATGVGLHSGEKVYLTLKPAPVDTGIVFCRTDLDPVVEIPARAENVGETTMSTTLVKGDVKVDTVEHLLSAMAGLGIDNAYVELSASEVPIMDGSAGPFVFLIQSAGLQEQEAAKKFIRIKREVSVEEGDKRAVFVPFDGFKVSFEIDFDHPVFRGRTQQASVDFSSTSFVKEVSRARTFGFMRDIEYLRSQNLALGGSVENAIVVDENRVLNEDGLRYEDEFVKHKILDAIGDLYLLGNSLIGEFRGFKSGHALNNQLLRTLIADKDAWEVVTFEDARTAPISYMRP

{"molecule": "CC(CCn1ccc(-c2ccc(-c3cn(Cc4ccc(F)cc4)nn3)cc2)cc1=O)(C(=O)NO)S(C)(=O)=O (racemic) [PT909]", "tR (min) Fluorescence assay": 68.2}
{"molecule": "CC(CCn1ccc(-c2ccc(C(=O)NCc3ccccc3)cc2)cc1=O)(C(=O)NO)S(C)(=O)=O (racemic) [PT923]", "tR (min) Fluorescence assay": 8.0}
{"molecule": "CC(CCn1ccc(-c2ccc(NC(=O)Cc3ccccc3)cc2)cc1=O)(C(=O)NO)S(C)(=O)=O (racemic) [PT924]", "tR (min) Fluorescence assay": 4.0}
{"molecule": "C=CCn1cc(-c2ccc(-c3ccn(CCC(C)(C(=O)NO)S(C)(=O)=O)c(=O)c3)cc2)nn1 (racemic) [PT907]", "tR (min) Fluorescence assay": 82.8}

----------
target: paLpxC (Pseudomonas aeruginosa (strain ATCC 15692 / DSM 22644 / CIP 104116 / JCM 14847 / LMG 12228 / 1C / PRS 101 / PAO1)); assay: biochemical; type: binding; conditions: 37° C., tR = 1/koff

{"compound": "COc1ccc(-c2ccc(CNC3(C(=O)NO)CCS(=O)(=O)CC3)cc2F)cc1", "tR (min) Fluorescence assay": 34.3}
{"compound": "CC(CCn1ccc(-c2ccc(-c3cn(Cc4cccnc4)nn3)cc2)cc1=O)(C(=O)NO)S(C)(=O)=O (racemic)", "tR (min) Fluorescence assay": 121.3}
{"compound": "CC(CCn1ccc(-c2ccc(-c3cn(CCO)nn3)cc2)cc1=O)(C(=O)NO)S(C)(=O)=O (racemic)", "tR (min) Fluorescence assay": 92.3}
{"compound": "CC(CCn1ccc(-c2ccc(-c3cn(CC4CCCCC4)nn3)cc2)cc1=O)(C(=O)NO)S(C)(=O)=O (racemic)", "tR (min) Fluorescence assay": 100.2}
{"compound": "CC(CCn1ccc(-c2ccc(-c3cn(Cc4ccncn4)nn3)cc2)cc1=O)(C(=O)NO)S(C)(=O)=O (racemic)", "tR (min) Fluorescence assay": 102.7}
{"compound": "CC(CCn1ccc(-c2ccc(N)cc2)cc1=O)(C(=O)NO)S(C)(=O)=O (stereo not shown)", "tR (min) Fluorescence assay": 121.15}
{"compound": "CC(CCn1ccc(-c2ccc(-c3cn(Cc4ccccn4)nn3)cc2)cc1=O)(C(=O)NO)S(C)(=O)=O (racemic)", "tR (min) Fluorescence assay": 118.5}
{"compound": "CC(CCn1ccc(-c2ccc(-c3cn(Cc4ccc([N+](=O)[O-])cc4)nn3)cc2)cc1=O)(C(=O)NO)S(C)(=O)=O (racemic)", "tR (min) Fluorescence assay": 78.5}
{"compound": "CC(CCn1ccc(-c2ccc(CN3CCOCC3)cc2)cc1=O)(C(=O)NO)S(C)(=O)=O (racemic)", "tR (min) Fluorescence assay": 4.7}
{"compound": "COc1ccc(-c2ccc(CNC3(C(=O)NO)CCS(=O)(=O)CC3)cc2)c(F)c1", "tR (min) Fluorescence assay": 32.0}

Each recorded value in this set is attributed to patent US20250099433A1.
